- Tested on: HuT 78
- Test name: In vitro growth inhibition, ATP assay ([…]-GLO)
- Assay type: cell-based
- Experimental context: Homo sapiens, HuT78; HuT 78, Cutaneous T-Cell Lymphoma, ATP; 50% of maximal inhibition
- Procedure: The inhibition of growth was tested in a variety of cancer cell lines. All cell lines were obtained from American Type Culture Collection (ATCC, Manassas, Va.) and culture media and supplements were supplied by ATCC and Invitrogen (Carlsbad, Calif.). The ATP assay was performed using […]-GLO Luminescent Cell Viability Assay Kit from Promega (Madison, Wis.) which allows ATP to be roughly quantified based on the fluorescence emitted by the cells. […]
Quantity measured: IC50 (nM)
Answers are plain numbers, in nM.

Any idea what IC50 was measured for "CC(/C=C/[C@@H]1C[C@]1(C)c1ccc2c(c1)C(C)(C)CCC2(C)C)=C\C(=O)O" ?
1.6
